Origin of the recorded values: the Human Domainome abundance scans (Beltran et al. 2025)

B1: Formin-binding protein 4, residues 200 to 261; numbered along this chain, Q8N3X1 (parent)
chain: SGWQYDTQCSLAGVGIEMGDWQEVWDENTGCYYYWNTQTNEVTWELPQYLATQVQGLQHYQP

- Variants of: B1
- protocol: abundance fitness (aPCA) (normalised: wild type 0, dead -1); higher = more abundant; growth selection in yeast, the domain comes from the species named
- testContext: Homo sapiens
Classify by abundance fitness. Ranges: class 1 (below -0.4), class 2 (-0.4 to below -0.1), class 3 (-0.1 or more)

- mutantLabel: "D26F"
  assignedCategory: "class 2"
- mutantLabel: "L57I"
  assignedCategory: "class 2"
- mutantLabel: "L50W"
  assignedCategory: "class 1"
- mutantLabel: "Q48V"
  assignedCategory: "class 2"
- mutantLabel: "Y32V"
  assignedCategory: "class 1"
- mutantLabel: "N36R"
  assignedCategory: "class 1"
- mutantLabel: "Q4A"
  assignedCategory: "class 1"
- mutantLabel: "W21E"
  assignedCategory: "class 1"
- mutantLabel: "G15H"
  assignedCategory: "class 1"
- mutantLabel: "T29R"
  assignedCategory: "class 3"
- mutantLabel: "G13L"
  assignedCategory: "class 2"
- mutantLabel: "Q55H"
  assignedCategory: "class 1"
- mutantLabel: "N40A"
  assignedCategory: "class 3"
- mutantLabel: "T52D"
  assignedCategory: "class 3"
- mutantLabel: "E45T"
  assignedCategory: "class 3"
- mutantLabel: "E23M"
  assignedCategory: "class 1"
- mutantLabel: "Q53M"
  assignedCategory: "class 1"
- mutantLabel: "Y60L"
  assignedCategory: "class 3"
- mutantLabel: "V24W"
  assignedCategory: "class 1"
- mutantLabel: "V54L"
  assignedCategory: "class 3"
- mutantLabel: "E41Y"
  assignedCategory: "class 2"
- mutantLabel: "H59R"
  assignedCategory: "class 2"
- mutantLabel: "L46Y"
  assignedCategory: "class 3"
- mutantLabel: "D20C"
  assignedCategory: "class 2"
- mutantLabel: "L11Y"
  assignedCategory: "class 1"
- mutantLabel: "T29I"
  assignedCategory: "class 2"
- mutantLabel: "G56W"
  assignedCategory: "class 2"
- mutantLabel: "M18G"
  assignedCategory: "class 1"
- mutantLabel: "S1K"
  assignedCategory: "class 3"
- mutantLabel: "E17P"
  assignedCategory: "class 1"
- mutantLabel: "S1D"
  assignedCategory: "class 3"
- mutantLabel: "Y33F"
  assignedCategory: "class 2"
- mutantLabel: "S10T"
  assignedCategory: "class 2"
- mutantLabel: "L50S"
  assignedCategory: "class 1"
- mutantLabel: "Y49N"
  assignedCategory: "class 2"
- mutantLabel: "Q8T"
  assignedCategory: "class 3"
- mutantLabel: "S1L"
  assignedCategory: "class 1"
- mutantLabel: "Y33L"
  assignedCategory: "class 1"
- mutantLabel: "T52A"
  assignedCategory: "class 3"
- mutantLabel: "N36T"
  assignedCategory: "class 1"
- mutantLabel: "V14K"
  assignedCategory: "class 3"
- mutantLabel: "D20N"
  assignedCategory: "class 2"
- mutantLabel: "G30V"
  assignedCategory: "class 2"
- mutantLabel: "Q53K"
  assignedCategory: "class 2"
- mutantLabel: "Y60A"
  assignedCategory: "class 3"
- mutantLabel: "W35F"
  assignedCategory: "class 3"
- mutantLabel: "T29G"
  assignedCategory: "class 2"
- mutantLabel: "Y5G"
  assignedCategory: "class 2"
- mutantLabel: "L50H"
  assignedCategory: "class 1"
- mutantLabel: "L50K"
  assignedCategory: "class 1"
- mutantLabel: "E17K"
  assignedCategory: "class 3"
- mutantLabel: "G30Q"
  assignedCategory: "class 3"
- mutantLabel: "H59N"
  assignedCategory: "class 3"
- mutantLabel: "D6R"
  assignedCategory: "class 2"
- mutantLabel: "W44V"
  assignedCategory: "class 2"
- mutantLabel: "T52R"
  assignedCategory: "class 3"
- mutantLabel: "G13F"
  assignedCategory: "class 2"
- mutantLabel: "V54A"
  assignedCategory: "class 2"
- mutantLabel: "I16C"
  assignedCategory: "class 2"
- mutantLabel: "Y34W"
  assignedCategory: "class 1"
- mutantLabel: "T39D"
  assignedCategory: "class 2"
- mutantLabel: "Q53T"
  assignedCategory: "class 1"
- mutantLabel: "D6Q"
  assignedCategory: "class 1"
- mutantLabel: "W25G"
  assignedCategory: "class 1"
- mutantLabel: "E17L"
  assignedCategory: "class 1"
- mutantLabel: "N28Y"
  assignedCategory: "class 2"
- mutantLabel: "N28P"
  assignedCategory: "class 2"
- mutantLabel: "N28W"
  assignedCategory: "class 2"
- mutantLabel: "I16P"
  assignedCategory: "class 1"
- mutantLabel: "L46D"
  assignedCategory: "class 1"
- mutantLabel: "A12G"
  assignedCategory: "class 3"
- mutantLabel: "V54Y"
  assignedCategory: "class 2"
- mutantLabel: "Y49V"
  assignedCategory: "class 3"
- mutantLabel: "Q55S"
  assignedCategory: "class 2"
